Relative KD: recorded values
# measured.on: T1, Homo sapiens factor Bb protein (human, UniProt P00751 260-764)
# T1 construct: Bought from CompTech (A155); also called complement factor Bb; human factor Bb
# method.description: SPR single cycle kinetics; ratio against VH0/Vκ0
attribute.measured: Relative KD

>>> recorded_measurement("VH3/Vκ2 (antibody, V domains shown) VH: EVQLVESGGGLVKPGGSLRLSCAASGFTFSNYAMSWVRQAPGKGLEWVATISNRGSYTYYADSVKGRFTISRDNAKNSLYLQMNSLRAEDTALYYCARERPMDYWGQGTLVTVSS VL: DIVMTQSPSTLSASVGDRVTITCKASQDVGTAVAWYQQKPGQPPKLLIYWASTRHTGVPDRFTGSGSGTDFTLTISSLQAEDFAVYFCHQHSSNPLTFGQGTKLEIK")
9.09
>>> recorded_measurement("VH1/Vκ4 (antibody, V domains shown) VH: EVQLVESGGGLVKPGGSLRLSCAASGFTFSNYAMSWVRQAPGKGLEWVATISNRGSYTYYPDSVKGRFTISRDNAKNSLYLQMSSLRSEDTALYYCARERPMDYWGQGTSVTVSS VL: DIQMTQSPSTLSASVGDRVTITCRASQDVGTAVAWYQQKPGQPPKLLIYWASTRHTGVPDRFSGSGSGTDFTLTISSLQAEDFAVYYCHQHSSNPLTFGQGTKLEIK")
3.7
>>> recorded_measurement("VH1/Vκ2 (antibody, V domains shown) VH: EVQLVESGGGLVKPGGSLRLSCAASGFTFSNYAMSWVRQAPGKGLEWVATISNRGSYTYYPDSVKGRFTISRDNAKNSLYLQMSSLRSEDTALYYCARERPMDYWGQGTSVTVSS VL: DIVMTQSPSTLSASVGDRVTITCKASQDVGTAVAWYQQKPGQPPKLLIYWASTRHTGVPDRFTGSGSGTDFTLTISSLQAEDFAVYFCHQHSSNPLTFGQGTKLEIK")
2.97
